# TARGET_OR_SYSTEM: Amine oxidase [flavin-containing] B (Homo sapiens, UniProt P27338)
# Sequence (P27338 whole entry): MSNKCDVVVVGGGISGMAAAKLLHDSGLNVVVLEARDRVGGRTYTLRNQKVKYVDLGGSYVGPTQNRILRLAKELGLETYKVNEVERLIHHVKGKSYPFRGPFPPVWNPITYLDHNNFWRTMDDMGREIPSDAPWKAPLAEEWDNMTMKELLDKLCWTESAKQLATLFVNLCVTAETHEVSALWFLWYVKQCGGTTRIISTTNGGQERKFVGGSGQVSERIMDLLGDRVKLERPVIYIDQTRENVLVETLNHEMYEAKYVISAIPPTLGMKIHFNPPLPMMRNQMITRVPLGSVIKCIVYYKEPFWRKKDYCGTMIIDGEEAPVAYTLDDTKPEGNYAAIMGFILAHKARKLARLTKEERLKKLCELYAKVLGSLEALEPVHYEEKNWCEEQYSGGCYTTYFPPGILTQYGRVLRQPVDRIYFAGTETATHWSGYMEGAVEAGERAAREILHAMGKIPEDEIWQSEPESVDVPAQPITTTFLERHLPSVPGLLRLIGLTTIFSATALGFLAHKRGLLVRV
# ASSAY_PROTOCOL: Inhibition of recombinant human MAO-B expressed in baculovirus infected BTI insect cells using kynuramine as substrate incubated for 30 mins by fluorescence based assay
Listed here: items and their measured IC50.
Give a bare numeral; the unit µM is implied.

Please fill in: IC50 reported for "O=C(/C=C/c1cccc(OCCCCCN2CCc3ccccc3C2)c1)c1ccccc1O" = 4.8

Please fill in: IC50 reported for "O=C(/C=C/c1ccc(F)cc1)c1ccc(OCCCN2CCc3ccccc3C2)cc1O" = 12.6

Please fill in: IC50 reported for "CN(C)c1ccc(/C=C/C(=O)c2ccc(OCCCCCCN3CCc4ccccc4C3)cc2O)cc1" = 7.1

Please fill in: IC50 reported for "O=C(/C=C/c1cccc(OCCCN2CCc3ccccc3C2)c1)c1ccccc1O" = 10.7

Please fill in: IC50 reported for "O=C(/C=C/c1cccc(OCCCCCCN2CCc3ccccc3C2)c1)c1ccccc1O" = 6.7

====

# ASSAY_PROTOCOL: Permeability of compound at 100 ug/ml measured after dilution with PBS/EtOH (70:30) at pH 7.4 after 18 hrs by PAMPA-BBB assay
METRIC: Papp at 18 h, 100 ug/ml (×10⁻⁶ cm/s)
Give a bare numeral; the unit ×10⁻⁶ cm/s is implied.

Before answering, review these 5 worked examples.
COMPOUND_STRUCTURE: O=C(/C=C/c1ccc(F)cc1)c1ccc(OCCCN2CCc3ccccc3C2)cc1O
Papp at 18 h, 100 ug/ml [×10⁻⁶ cm/s]: 12.6
//
COMPOUND_STRUCTURE: O=C(/C=C/c1cccc(OCCCN2CCc3ccccc3C2)c1)c1ccccc1O
Papp at 18 h, 100 ug/ml [×10⁻⁶ cm/s]: 10.2
//
COMPOUND_STRUCTURE: O=C(/C=C/c1cccc(OCCCCN2CCC(Cc3ccccc3)CC2)c1)c1ccccc1O
Papp at 18 h, 100 ug/ml [×10⁻⁶ cm/s]: 12.3
//
COMPOUND_STRUCTURE: O=C(/C=C/c1cccc(OCCCCN2CCc3ccccc3C2)c1)c1ccccc1O
Papp at 18 h, 100 ug/ml [×10⁻⁶ cm/s]: 11.3
//
COMPOUND_STRUCTURE: COc1ccccc1/C=C/C(=O)c1ccc(OCCCCN2CCc3ccccc3C2)cc1O
Papp at 18 h, 100 ug/ml [×10⁻⁶ cm/s]: 13.1

Please turn your attention to the following entry.
Please fill in: Papp at 18 h, 100 ug/ml reported for "O=C(/C=C/c1cccc(OCCCCCN2CCc3ccccc3C2)c1)c1ccccc1O" = 10

====

# TARGET_OR_SYSTEM: Cholinesterase (Equus caballus, UniProt P81908)
# Sequence (P81908 whole entry): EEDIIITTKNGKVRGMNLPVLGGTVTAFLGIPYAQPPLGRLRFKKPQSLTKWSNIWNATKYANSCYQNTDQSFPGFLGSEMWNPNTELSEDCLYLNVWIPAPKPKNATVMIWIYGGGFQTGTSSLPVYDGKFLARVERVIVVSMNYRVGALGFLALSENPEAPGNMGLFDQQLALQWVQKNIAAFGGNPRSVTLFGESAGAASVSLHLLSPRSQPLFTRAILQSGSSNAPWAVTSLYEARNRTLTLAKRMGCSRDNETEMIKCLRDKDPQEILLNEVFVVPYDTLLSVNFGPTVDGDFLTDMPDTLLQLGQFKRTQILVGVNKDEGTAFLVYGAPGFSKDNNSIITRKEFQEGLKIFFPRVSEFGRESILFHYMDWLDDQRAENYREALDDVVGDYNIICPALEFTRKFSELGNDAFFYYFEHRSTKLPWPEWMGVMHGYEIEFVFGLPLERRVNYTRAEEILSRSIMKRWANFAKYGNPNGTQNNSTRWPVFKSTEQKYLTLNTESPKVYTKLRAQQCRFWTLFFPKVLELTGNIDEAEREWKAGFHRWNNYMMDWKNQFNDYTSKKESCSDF
# ASSAY_PROTOCOL: Inhibition of equine serum BuChE using butyrylthiocholine iodide as substrate incubated for 15 mins by Ellman's method
METRIC: pIC50
The meaning of pIC50 here: minus log10 of the concentration in molar units.

COMPOUND_STRUCTURE: O=C(/C=C/c1cccc(OCCCN2CCc3ccccc3C2)c1)c1ccccc1O
pIC50: 4.95

Please fill in: pIC50 reported for "O=C(/C=C/c1ccc(F)cc1)c1ccc(OCCCN2CCc3ccccc3C2)cc1O" = 4.87

Please fill in: pIC50 reported for "O=C(CCc1cccc(OCCCCN2CCc3ccccc3C2)c1)c1ccccc1O" = 6.19

Please fill in: pIC50 reported for "O=C(/C=C/c1cccc(OCCCCN2CCc3ccccc3C2)c1)c1ccccc1O" = 5.59

====

# TARGET_OR_SYSTEM: Amine oxidase [flavin-containing] A (Homo sapiens, UniProt P21397)
# Sequence (P21397 whole entry): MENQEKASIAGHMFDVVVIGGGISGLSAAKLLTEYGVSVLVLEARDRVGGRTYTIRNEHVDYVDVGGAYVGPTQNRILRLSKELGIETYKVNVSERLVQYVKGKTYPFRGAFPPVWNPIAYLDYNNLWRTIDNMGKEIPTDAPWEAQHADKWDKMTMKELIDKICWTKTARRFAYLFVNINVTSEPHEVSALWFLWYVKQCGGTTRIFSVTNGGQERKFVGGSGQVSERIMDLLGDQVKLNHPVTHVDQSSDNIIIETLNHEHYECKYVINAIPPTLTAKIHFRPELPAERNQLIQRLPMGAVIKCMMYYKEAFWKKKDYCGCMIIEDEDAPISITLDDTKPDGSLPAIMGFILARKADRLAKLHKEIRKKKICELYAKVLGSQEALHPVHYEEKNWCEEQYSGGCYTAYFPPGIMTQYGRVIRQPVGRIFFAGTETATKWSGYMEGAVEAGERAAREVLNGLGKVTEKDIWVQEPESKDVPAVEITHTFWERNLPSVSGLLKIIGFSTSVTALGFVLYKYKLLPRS
# ASSAY_PROTOCOL: Inhibition of recombinant human MAO-A expressed in baculovirus infected BTI insect cells using kynuramine as substrate incubated for 30 mins by fluorescence based assay
METRIC: IC50

COMPOUND_STRUCTURE: COc1ccccc1/C=C/C(=O)c1ccc(OCCCCN2CCc3ccccc3C2)cc1O
TARGET_OR_SYSTEM: Amine oxidase [flavin-containing] A (Homo sapiens, UniProt P21397)
IC50: 30.1 µM

Please fill in: IC50 reported for "O=C(/C=C/c1cccc(OCCCN2CCc3ccccc3C2)c1)c1ccccc1O" = 29.8 µM

Please fill in: IC50 reported for "O=C(/C=C/c1ccc(F)cc1)c1ccc(OCCCN2CCc3ccccc3C2)cc1O" = 26.1 µM

Please fill in: IC50 reported for "O=C(/C=C/c1cccc(OCCCCCCN2CCc3ccccc3C2)c1)c1ccccc1O" = 31.5 µM

====

Listed here: items and their measured IC50.
# TARGET_OR_SYSTEM: UniProtKB P27338
# ASSAY_PROTOCOL: Inhibition of recombinant human MAO-B expressed in baculovirus infected BTI insect cells using kynuramine as substrate incubated for 30 mins by fluorescence based assay
The reply should consist of the numeric value with the unit placed after it.

COMPOUND_STRUCTURE: COc1ccccc1/C=C/C(=O)c1ccc(OCCCCN2CCc3ccccc3C2)cc1O
MEASUREMENT: 9.5 µM
--
COMPOUND_STRUCTURE: O=C(/C=C/c1cccc(OCCCCN2CCC(Cc3ccccc3)CC2)c1)c1ccccc1O
MEASUREMENT: 6.4 µM
--
COMPOUND_STRUCTURE: O=C(/C=C/c1cccc(OCCCCN2CCc3ccccc3C2)c1)c1ccccc1O
MEASUREMENT: 5.3 µM

Please turn your attention to the following entry.
Please fill in: IC50 reported for "O=C(CCc1cccc(OCCCCN2CCc3ccccc3C2)c1)c1ccccc1O" = 26.7 µM

====

Listed here: items and their measured Papp at 18 h, 100 ug/ml.
# ASSAY_PROTOCOL: Permeability of compound at 100 ug/ml measured after dilution with PBS/EtOH (70:30) at pH 7.4 after 18 hrs by PAMPA-BBB assay
The reply should consist of the numeric value with the unit placed after it.

COMPOUND_STRUCTURE: O=C(/C=C/c1cccc(OCCCCCCN2CCc3ccccc3C2)c1)c1ccccc1O
Papp at 18 h, 100 ug/ml: 11.8 ×10⁻⁶ cm/s
--
COMPOUND_STRUCTURE: O=C(CCc1cccc(OCCCCN2CCc3ccccc3C2)c1)c1ccccc1O
Papp at 18 h, 100 ug/ml: 16.8 ×10⁻⁶ cm/s

Please turn your attention to the following entry.
Please fill in: Papp at 18 h, 100 ug/ml reported for "CN(C)c1ccc(/C=C/C(=O)c2ccc(OCCCCCCN3CCc4ccccc4C3)cc2O)cc1" = 13.2 ×10⁻⁶ cm/s

Cited source for all entries: ChEMBL document CHEMBL4364308
